# testTarget: Feline_OSMR_hlgG1_Fc (feline)
# Sequence (chain, as listed by the source limits assumed, form in doubt): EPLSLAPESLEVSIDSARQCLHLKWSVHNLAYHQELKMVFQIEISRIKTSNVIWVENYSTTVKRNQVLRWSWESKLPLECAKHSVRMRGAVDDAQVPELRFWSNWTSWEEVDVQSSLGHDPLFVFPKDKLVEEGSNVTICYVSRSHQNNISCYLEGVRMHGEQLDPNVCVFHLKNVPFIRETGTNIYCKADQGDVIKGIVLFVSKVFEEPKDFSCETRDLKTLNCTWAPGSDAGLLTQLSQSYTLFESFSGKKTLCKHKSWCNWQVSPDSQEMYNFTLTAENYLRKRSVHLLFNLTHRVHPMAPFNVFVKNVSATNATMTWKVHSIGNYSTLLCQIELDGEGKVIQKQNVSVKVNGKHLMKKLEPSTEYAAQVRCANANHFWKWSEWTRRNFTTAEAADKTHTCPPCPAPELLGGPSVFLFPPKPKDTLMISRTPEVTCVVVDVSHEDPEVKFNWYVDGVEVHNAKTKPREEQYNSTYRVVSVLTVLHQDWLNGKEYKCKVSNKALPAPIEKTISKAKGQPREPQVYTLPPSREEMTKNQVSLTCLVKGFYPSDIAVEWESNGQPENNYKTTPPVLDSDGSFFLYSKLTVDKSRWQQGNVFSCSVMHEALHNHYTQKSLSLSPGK
# testDetails: SPR Biacore

| binder | Kd, nM |
| --- | --- |
| mouse: canine 02D09 chimera (antibody, V domains shown) VH: EVQLVESGGGLVKPGGSLTLSCAASGFTFSDYGMHWLRQAPEKGLEWVAYISSGSRAVFFADTVKGRFTISRDNAKNTLFLQMTSLRSDDTAMYYCARDRYDGRGFAYWGQGTLVTVSA VL: DIVLTQSPATLSVTPGDSVSLSCRASQSISNNLHWYQQTSHESPRLLITYASQSISGIPSRFSGSGSGTDFTLSINSVETEDFGMYFCQQSNSWPLTFGAGTKLELKR | 9.08 |
| Mu_02D09_VL (SEQ ID NO: 33)_S56A (antibody, V domains shown) VH: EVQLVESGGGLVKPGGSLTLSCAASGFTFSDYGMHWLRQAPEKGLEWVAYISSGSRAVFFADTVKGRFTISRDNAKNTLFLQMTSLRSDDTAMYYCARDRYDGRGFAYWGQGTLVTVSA VL: DIVLTQSPATLSVTPGDSVSLSCRASQSISNNLHWYQQTSHESPRLLITYASQSIAGIPSRFSGSGSGTDFTLSINSVETEDFGMYFCQQSNSWPLTFGAGTKLELKR | 9.3 |
